test system: rodent lifetime carcinogenesis bioassay, tumor incidence TD50; experiment: carcinogenic potency in animals, long-term in vivo studies, CPDB compilation (AID 1745844); details: rat; strain Alpk:APfSD; females; in feed; site: liver; lesion: hepatocellular adenoma; dosed 104 weeks; study length 104 weeks
property: TD50 (mg/kg/day)
Your answer is read as mg/kg/day, so omit the unit and give the number.

For COC(=O)C(C)(C)Oc1ccc(-c2ccc(Cl)cc2)cc1 , write its TD50.
460

---

test system: rodent lifetime carcinogenesis bioassay, tumor incidence TD50; test: carcinogenic potency in animals, long-term in vivo studies, CPDB compilation (AID 1745844); details: mouse; strain B6C3F1; males; i.p.; site: lung; lesion: alveolar/bronchiolar adenoma; dosed 52 weeks; study length 85 weeks
property: TD50

Give reported TD50 value for CNNCc1ccc(C(=O)NC(C)C)cc1
0.721 mg/kg/day
